Consider the following compounds and their measured pEC50 readings.
Measured on: Protein (Hepatitis B virus genotype D subtype ayw, UniProt P03146)
Sequence (P03146 whole entry): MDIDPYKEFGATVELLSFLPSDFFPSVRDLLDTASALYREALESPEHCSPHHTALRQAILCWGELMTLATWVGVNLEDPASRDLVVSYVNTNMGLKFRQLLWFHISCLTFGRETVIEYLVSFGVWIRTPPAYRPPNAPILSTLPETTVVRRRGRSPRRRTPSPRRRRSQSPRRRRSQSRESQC
Run description: Protein inhibition rate / EC50 (Table 1, no method described)
API: returns pEC50 as number; meaning -log10 of concentration in mol/L.

Look over these answered cases.
CCc1cc(CN(C(=O)Nc2ccc(F)c(Cl)c2)c2ccc(OC)nc2)n[nH]1; 5.52
COc1ccc(N(Cc2n[nH]c3c2CCC3C)C(=O)Nc2ccc(F)c(Cl)c2)cn1 (stereo not drawn); 5.40
COc1ccc(N(Cc2cc(C)[nH]n2)C(=O)Nc2ccc(F)c(Cl)c2)cn1; 5.42
COc1ccc(N(Cc2n[nH]cc2C)C(=O)Nc2ccc(F)c(Cl)c2)cn1; 5.18
COc1ccc(N(Cc2cc(C(C)C)[nH]n2)C(=O)Nc2ccc(F)c(Cl)c2)cn1; 5.30
COc1ccc(N(Cc2n[nH]c3c2CC(F)(F)CC3)C(=O)Nc2ccc(F)c(Cl)c2)cn1; 5.42
COc1ccc(N(Cc2n[nH]c3c2CC(C)(C)CC3)C(=O)Nc2ccc(F)c(Cl)c2)cn1; 5.02
O=C(Nc1ccc(F)c(Cl)c1)N(Cc1n[nH]c2c1CCC2)c1ccon1; 5.46

Query: Field request: pEC50 | item: COc1ccc(N(Cc2cc(C)nn2C)C(=O)Nc2ccc(F)c(Cl)c2)cc1
Response: 5.28

Query: Field request: pEC50 | item: O=C(Nc1ccc(F)c(Cl)c1)N(Cc1n[nH]c2c1CCC2)c1ccc(O)cc1
Response: 5.80

Query: Field request: pEC50 | item: COc1ccc(N(Cc2nn(C)c3c2CCCC3)C(=O)Nc2ccc(F)c(Cl)c2)cc1
Response: 5.04

Query: Field request: pEC50 | item: COc1ccc(N(Cc2n[nH]c3c2CSCC3)C(=O)Nc2ccc(F)c(Cl)c2)cn1
Response: 5.48

Query: Field request: pEC50 | item: COC(=O)c1ccc(N(Cc2n[nH]c3c2CCCC3)C(=O)Nc2ccc(F)c(Cl)c2)cc1
Response: 5.48

Query: Field request: pEC50 | item: COc1ccc(N(Cc2cc(OC)[nH]n2)C(=O)Nc2ccc(F)c(Cl)c2)cn1
Response: 5.24
